Origin of measurements: patent US11737462B2

Biological target: RACK1A (Arabidopsis thaliana)
Sequence (O24456 whole entry): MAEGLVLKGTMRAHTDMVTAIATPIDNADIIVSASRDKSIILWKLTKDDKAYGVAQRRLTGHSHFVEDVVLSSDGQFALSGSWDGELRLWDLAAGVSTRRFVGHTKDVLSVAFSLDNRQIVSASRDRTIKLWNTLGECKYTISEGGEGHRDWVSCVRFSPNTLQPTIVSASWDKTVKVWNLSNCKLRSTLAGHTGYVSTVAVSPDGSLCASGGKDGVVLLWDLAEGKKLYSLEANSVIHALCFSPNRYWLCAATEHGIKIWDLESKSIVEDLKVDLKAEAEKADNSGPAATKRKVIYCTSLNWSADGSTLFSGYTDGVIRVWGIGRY
Assay: in-vitro assay of tyrosine phosphorylation (Y248) based homodimerization of RACK1A
Conditions: data not shown
property: pIC50
Field pIC50 (float): negative decimal logarithm of the concentration in molar.

Query :: Fill blank: measured pIC50 of the compound Nn1c(S)nnc1-c1ccc(F)cc1 [SD-29] is ____.
Result :: 4.90
